Source listed as patent US20210087281A1.

# reported scatter score 0-4, HPAF-II, 0.037 nM; entries follow
TEST TARGET: native human MET on living cells (human, UniProt P08581 25-1390)
Sequence (P08581 25-1390): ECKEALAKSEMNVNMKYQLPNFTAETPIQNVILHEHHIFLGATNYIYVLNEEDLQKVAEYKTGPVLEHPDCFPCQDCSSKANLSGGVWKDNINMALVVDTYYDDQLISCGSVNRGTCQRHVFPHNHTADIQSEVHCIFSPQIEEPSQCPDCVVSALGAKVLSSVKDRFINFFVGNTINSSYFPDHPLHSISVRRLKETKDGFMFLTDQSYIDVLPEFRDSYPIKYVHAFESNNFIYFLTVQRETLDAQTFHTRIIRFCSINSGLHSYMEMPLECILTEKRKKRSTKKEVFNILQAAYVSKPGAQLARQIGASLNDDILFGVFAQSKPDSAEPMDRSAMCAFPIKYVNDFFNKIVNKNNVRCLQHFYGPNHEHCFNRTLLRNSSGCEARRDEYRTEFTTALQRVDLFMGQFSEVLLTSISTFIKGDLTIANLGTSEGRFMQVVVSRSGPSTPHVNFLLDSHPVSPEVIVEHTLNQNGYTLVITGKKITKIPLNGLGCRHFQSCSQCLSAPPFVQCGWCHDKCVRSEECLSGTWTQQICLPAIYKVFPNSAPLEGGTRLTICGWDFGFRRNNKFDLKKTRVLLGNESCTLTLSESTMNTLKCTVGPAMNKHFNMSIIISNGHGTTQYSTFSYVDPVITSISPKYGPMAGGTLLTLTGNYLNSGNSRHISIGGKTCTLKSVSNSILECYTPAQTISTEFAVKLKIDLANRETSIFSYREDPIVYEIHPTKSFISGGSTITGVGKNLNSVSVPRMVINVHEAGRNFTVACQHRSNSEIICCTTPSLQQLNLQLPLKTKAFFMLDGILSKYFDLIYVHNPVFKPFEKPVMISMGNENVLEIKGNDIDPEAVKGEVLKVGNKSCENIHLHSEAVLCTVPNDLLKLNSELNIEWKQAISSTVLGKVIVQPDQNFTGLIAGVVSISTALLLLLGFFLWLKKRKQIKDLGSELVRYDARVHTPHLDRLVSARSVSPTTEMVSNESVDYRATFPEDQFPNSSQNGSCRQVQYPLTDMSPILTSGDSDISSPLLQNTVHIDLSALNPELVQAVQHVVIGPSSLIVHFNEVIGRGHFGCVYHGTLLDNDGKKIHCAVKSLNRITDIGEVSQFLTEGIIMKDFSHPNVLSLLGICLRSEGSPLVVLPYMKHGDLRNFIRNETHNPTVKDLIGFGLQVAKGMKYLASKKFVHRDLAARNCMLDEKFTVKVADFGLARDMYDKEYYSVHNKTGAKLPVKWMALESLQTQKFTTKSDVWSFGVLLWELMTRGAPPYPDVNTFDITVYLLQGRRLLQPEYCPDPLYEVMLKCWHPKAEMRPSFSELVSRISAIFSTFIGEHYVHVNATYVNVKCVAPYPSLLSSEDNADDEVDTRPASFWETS
ASSAY PROCEDURE: cell-based or functional assay
TEST READOUT: scatter score 0-4, HPAF-II, 0.037 nM

72F8 chimeric llama-human IgG1 mAb (antibody, V domains shown, llama VH on human IgG1 CH1-CH2-CH3, llama VL on human lambda CL) VH: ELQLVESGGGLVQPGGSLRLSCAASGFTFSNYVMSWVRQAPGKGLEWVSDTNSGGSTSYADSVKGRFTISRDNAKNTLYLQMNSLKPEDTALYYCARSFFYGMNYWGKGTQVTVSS VL: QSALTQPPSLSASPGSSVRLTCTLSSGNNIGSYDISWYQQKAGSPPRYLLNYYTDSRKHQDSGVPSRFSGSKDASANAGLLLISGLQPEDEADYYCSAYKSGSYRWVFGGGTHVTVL = 0 score
71C3 chimeric llama-human IgG1 mAb (antibody, V domains shown, llama VH on human IgG1 CH1-CH2-CH3, llama VL on human lambda CL) VH: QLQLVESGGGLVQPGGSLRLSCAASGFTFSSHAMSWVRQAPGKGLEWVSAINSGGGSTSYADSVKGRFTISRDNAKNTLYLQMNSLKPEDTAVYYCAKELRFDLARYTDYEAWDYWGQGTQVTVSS VL: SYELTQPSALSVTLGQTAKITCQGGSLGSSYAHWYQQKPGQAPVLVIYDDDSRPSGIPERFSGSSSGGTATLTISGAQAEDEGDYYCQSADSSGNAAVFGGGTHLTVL = 0 score
71G3 chimeric llama-human IgG1 mAb (antibody, V domains shown, llama VH on human IgG1 CH1-CH2-CH3, llama VL on human lambda CL) VH: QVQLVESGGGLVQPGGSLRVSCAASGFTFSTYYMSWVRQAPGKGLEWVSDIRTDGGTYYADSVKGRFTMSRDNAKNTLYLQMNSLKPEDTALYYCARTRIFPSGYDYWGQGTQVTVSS VL: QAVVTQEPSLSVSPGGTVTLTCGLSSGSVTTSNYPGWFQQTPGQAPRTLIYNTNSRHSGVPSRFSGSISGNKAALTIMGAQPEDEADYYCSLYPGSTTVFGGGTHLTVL = 2 score
76H10 chimeric llama-human IgG1 mAb (antibody, V domains shown, llama VH on human IgG1 CH1-CH2-CH3, llama VL on human lambda CL) VH: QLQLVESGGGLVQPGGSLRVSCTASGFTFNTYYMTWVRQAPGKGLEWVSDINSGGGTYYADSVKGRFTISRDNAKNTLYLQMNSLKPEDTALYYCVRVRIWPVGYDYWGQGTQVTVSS VL: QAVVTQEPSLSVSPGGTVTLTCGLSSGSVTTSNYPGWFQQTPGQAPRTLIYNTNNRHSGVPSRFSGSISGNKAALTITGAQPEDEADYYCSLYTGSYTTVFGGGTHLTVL = 0 score
71D6 chimeric llama-human IgG1 mAb (antibody, V domains shown, llama VH on human IgG1 CH1-CH2-CH3, llama VL on human lambda CL) VH: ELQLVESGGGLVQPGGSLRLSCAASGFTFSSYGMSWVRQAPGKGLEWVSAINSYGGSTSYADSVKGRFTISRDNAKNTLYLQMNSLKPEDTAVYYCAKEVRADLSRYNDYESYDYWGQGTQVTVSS VL: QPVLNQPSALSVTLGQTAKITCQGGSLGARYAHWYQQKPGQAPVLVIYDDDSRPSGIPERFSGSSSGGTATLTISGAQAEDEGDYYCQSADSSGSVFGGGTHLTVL = 3 score
71G2 chimeric llama-human IgG1 mAb (antibody, V domains shown, llama VH on human IgG1 CH1-CH2-CH3, llama VL on human lambda CL) VH: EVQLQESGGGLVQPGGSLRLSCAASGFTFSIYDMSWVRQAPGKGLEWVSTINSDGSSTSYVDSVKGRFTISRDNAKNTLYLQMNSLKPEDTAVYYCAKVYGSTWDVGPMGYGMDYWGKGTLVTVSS VL: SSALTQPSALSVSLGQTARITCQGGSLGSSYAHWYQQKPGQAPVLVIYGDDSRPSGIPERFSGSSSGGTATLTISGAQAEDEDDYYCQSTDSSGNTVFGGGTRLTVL = 3 score
74C8 chimeric llama-human IgG1 mAb (antibody, V domains shown, llama VH on human IgG1 CH1-CH2-CH3, llama VL on human lambda CL) VH: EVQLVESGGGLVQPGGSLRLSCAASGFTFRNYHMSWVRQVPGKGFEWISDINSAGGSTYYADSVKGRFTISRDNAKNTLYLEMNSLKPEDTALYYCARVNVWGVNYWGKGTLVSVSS VL: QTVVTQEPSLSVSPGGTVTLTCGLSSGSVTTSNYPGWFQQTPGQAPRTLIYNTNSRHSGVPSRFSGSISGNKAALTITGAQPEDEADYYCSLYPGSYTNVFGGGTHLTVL = 1 score
71G12 chimeric llama-human IgG1 mAb (antibody, V domains shown, llama VH on human IgG1 CH1-CH2-CH3, llama VL on human kappa CL) VH: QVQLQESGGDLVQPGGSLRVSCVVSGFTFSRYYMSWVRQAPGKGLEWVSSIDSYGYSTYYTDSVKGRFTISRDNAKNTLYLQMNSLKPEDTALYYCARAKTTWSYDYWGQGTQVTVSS VL: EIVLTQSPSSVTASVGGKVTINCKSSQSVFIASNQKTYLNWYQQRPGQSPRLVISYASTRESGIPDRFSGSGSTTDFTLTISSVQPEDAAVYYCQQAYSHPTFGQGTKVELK = 0 score
76G7 chimeric llama-human IgG1 mAb (antibody, V domains shown, llama VH on human IgG1 CH1-CH2-CH3, llama VL on human lambda CL) VH: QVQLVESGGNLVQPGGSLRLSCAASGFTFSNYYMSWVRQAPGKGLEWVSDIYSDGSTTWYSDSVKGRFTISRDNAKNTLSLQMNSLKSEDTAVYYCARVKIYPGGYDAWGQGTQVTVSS VL: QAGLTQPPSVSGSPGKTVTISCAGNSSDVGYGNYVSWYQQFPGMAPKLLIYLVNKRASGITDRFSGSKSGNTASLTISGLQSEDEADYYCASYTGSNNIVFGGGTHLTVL = 0 score
71D4 chimeric llama-human IgG1 mAb (antibody, V domains shown, llama VH on human IgG1 CH1-CH2-CH3, llama VL on human lambda CL) VH: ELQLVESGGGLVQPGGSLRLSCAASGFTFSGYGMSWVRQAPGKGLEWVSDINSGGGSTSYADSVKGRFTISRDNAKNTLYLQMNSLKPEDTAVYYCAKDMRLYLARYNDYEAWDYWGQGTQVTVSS VL: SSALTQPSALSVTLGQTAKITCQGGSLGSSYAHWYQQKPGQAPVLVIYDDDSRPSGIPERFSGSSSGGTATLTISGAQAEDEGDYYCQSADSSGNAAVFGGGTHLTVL = 0 score
71A3 chimeric llama-human IgG1 mAb (antibody, V domains shown, llama VH on human IgG1 CH1-CH2-CH3, llama VL on human lambda CL) VH: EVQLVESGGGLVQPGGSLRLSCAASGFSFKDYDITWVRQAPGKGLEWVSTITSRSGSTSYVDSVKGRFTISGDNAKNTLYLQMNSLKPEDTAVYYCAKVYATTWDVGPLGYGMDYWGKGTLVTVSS VL: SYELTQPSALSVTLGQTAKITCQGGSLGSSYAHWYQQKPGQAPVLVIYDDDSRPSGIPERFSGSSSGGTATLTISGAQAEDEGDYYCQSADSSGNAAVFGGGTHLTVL = 3 score
